- Test system: Caco-2
- assay.remarks: cell viability relative to DMSO; higher = less toxic
- measurement.setup: 72 h; 10 nM
parameter: cell viability (%)
Give bare numbers, in %.

// worked examples, cell viability included
Please fill in: cell viability reported for Cc1cccc(NC(=O)CN2CCC(c3ccccn3)CC2)c1 = 101

Please fill in: cell viability reported for CCC(CO)(C(=O)OC1CC2CCC(C1)[N+]2(C)C)c1ccccc1 (stereo unspecified) [troventol] = 92.6

Please fill in: cell viability reported for Cc1cc(N2CCOCC2)ccc1Nc1nc(NC2CCCCC2)c2nc[nH]c2n1 = 104

Please fill in: cell viability reported for O=C(/C=C/C=C/c1ccc2c(c1)OCO2)N1CCCCC1 [piperine] = 106

Please fill in: cell viability reported for COc1cc2c(NC3CCN(C(C)C)CC3)nc(C3CCCCC3)nc2cc1OCCCN1CCCC1 [UNC0638] = 95.3

Please fill in: cell viability reported for O=C1N=C(NCc2cccs2)S/C1=C\c1ccc2ncccc2c1 [Ro-3306] = 105

Please fill in: cell viability reported for Cc1c(C(=O)NCCCO)cnn1-c1nc(-c2cccc(C(F)(F)F)c2)cs1 = 91.4

Please fill in: cell viability reported for CN1C(=O)CC[C@H]1c1cccnc1 [cotinine] = 74.2

I have 4 compounds here; please give me cell viability for each one.
1. C[N+](C)(C)CCOC(=O)CCC(=O)OCC[N+](C)(C)C [succinylcholine-chloride]
2. CC[C@@H](Nc1c(Nc2cccc(C(=O)N(C)C)c2O)c(=O)c1=O)c1ccc(C)o1 [navarixin]
3. CCOC(=O)[C@H](CCc1ccccc1)N[C@@H](C)C(=O)N1C(=O)N(C)C[C@H]1C(=O)O [imidapril]
4. O=C1[C@H](CC[C@H](O)c2ccc(F)cc2)[C@@H](c2ccc(O)cc2)N1c1ccc(F)cc1 [ezetimibe]

[97.3, 99.3, 87.8, 98.1]

I have 2 compounds here; please give me cell viability for each one.
1. NC(=O)CN1CCCC1=O [piracetam]
2. O=C(Oc1ccccc1)c1ccccc1O [phenyl-salicylate]

1: 91.2; 2: 93.7

I have 2 compounds here; please give me cell viability for each one.
1. CC(=O)N[C@@H](CC(C)C)C(=O)O [acetyl-l-leucine]
2. CCCOc1ccc2c(c1)CC[C@@H]1[C@@H]2CC[C@]2(C)[C@@H](OC)CC[C@@H]12 [promestriene]

1: 103; 2: 97.4

Reference for the values: the supplement of paper PMC13380429
